The measurements presented in this section are drawn from ChEMBL document CHEMBL1152488.

- SYSTEM_NAME: Nitric oxide synthase 1 (Rattus norvegicus)
- PROTOCOL_SUMMARY: Inhibition of rat recombinant nNOS expressed in Saccharomyces cerevisiae assessed as conversion of [gamma-14C]L-arginine to [14C]L-citrulline at 100 uM by radioactive assay relative to control
- Parameters: scale not given: the % may be the effect or the level left
EXPERIMENTAL_ENDPOINT: Activity

Examples with their reported Activity follow.
CC1=CC2=NCC(C(=O)c3ccc(OCc4ccc(Br)cc4)cc3)CN2C=C1.Cl (stereo not drawn)
62%
CC1=CC2=NCC(C(=O)c3ccc4cc(C)ccc4c3)CN2C=C1.[O-][Cl+3]([O-])([O-])O (stereo not drawn)
69%

Query CC1=CC2=NCC(C(=O)c3ccc(OCc4ccc(C#N)cc4)cc3)CN2C=C1.[O-][Cl+3]([O-])([O-])O (stereo not drawn) yields Activity of 60%

Query CC1=CC2=NCC(C(=O)c3ccc(-c4ccc(Br)cc4)cc3)CN2C(C)=C1 (stereo not drawn) yields Activity of 58%

Query CC1=CC2=NCC(C(=O)c3ccc(OCc4ccc(Cl)cc4)cc3)CN2C=C1.[O-][Cl+3]([O-])([O-])O (stereo not drawn) yields Activity of 49%

* * *

- SYSTEM_NAME: Nitric oxide synthase 3 (Bos taurus)
- PROTOCOL_SUMMARY: Inhibition of bovine recombinant eNOS expressed in Escherichia coli assessed as conversion of [gamma-14C]L-arginine to [14C]L-citrulline at 100 uM by radioactive assay relative to control
- Set-up: scale not given: the % may be the effect or the level left
Examples of molecules with documented Activity follow.
// units = %; emit number, no label

Examples with their reported Activity follow.
CC1=CC=CC2=NCC(C(=O)c3ccc(F)cc3)CN12.[O-][Cl+3]([O-])([O-])O (centres undefined)
71
O=C(c1ccc(Cl)c(Cl)c1)C1CN=C2C=CC=CN2C1.[O-][Cl+3]([O-])([O-])O (centres undefined)
83
CC1=CC2=NCC(C(=O)c3ccc(OCc4ccc(C#N)cc4)cc3)CN2C=C1.[O-][Cl+3]([O-])([O-])O (centres undefined)
44

Okay, next one:
The molecule CC1=CC2=NCC(C(=O)c3ccc4cc(C)ccc4c3)CN2C(C)=C1.[O-][Cl+3]([O-])([O-])O (centres undefined) , when measured on Nitric oxide synthase 3 (Bos taurus), yielded Activity of 17

* * *

- SYSTEM_NAME: Nitric oxide synthase, inducible (Mus musculus)
- Sequence (P29477 whole entry): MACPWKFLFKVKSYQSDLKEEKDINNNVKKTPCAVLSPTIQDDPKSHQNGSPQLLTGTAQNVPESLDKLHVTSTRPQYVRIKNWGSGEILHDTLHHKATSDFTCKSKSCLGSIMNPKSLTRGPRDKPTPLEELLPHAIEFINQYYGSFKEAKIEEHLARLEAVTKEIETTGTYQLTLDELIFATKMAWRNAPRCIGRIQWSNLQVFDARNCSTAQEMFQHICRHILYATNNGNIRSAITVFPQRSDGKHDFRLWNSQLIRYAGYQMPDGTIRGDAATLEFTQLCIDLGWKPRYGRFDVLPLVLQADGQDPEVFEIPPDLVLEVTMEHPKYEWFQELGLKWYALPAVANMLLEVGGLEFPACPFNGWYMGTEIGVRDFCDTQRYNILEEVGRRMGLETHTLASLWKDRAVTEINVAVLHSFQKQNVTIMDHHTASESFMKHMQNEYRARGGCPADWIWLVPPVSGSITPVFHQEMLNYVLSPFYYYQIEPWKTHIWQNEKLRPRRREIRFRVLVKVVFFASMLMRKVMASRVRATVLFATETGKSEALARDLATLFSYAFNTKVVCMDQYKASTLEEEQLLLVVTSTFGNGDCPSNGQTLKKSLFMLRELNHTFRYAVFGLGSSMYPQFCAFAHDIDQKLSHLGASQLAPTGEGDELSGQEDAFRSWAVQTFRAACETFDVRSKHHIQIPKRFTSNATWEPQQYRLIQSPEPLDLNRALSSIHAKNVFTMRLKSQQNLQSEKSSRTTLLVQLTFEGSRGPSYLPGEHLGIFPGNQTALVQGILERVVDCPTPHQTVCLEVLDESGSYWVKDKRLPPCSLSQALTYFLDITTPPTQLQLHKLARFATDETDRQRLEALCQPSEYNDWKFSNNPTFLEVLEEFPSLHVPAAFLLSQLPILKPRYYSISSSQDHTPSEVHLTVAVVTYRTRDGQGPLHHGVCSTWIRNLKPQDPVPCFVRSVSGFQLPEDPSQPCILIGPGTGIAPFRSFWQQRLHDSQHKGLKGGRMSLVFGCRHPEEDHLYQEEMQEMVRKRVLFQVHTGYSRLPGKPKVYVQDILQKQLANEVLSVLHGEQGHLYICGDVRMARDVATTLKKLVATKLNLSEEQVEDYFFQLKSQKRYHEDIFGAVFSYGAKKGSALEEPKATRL
EXPERIMENTAL_ENDPOINT: pKi
Scale: pKi equals -log10([C]), with [C] in mol/L.

The molecule CC1=CC2=NCC(C(=O)c3ccc(-c4ccc(Br)cc4)cc3)CN2C=C1.[O-][Cl+3]([O-])([O-])O (stereo unspecified) , when measured on Nitric oxide synthase, inducible (Mus musculus), yielded pKi of 4.85
